test system: AsPC-1 cells (K-Ras G12D); test: 2D cell growth inhibition assay, AsPC-1; assay type: cell-based; conditions: Homo sapiens, ASPC1, 144 h, AsPC-1, K-Ras G12D, 6 days, absolute IC50
experimental_endpoint: IC50 (nM)
Your answer is read as nM, so omit the unit and give the number.

Enquiry: For the compound C#Cc1c(Cl)ccc2cc(O)cc(-c3ncc4c(N5CCCOCC5)nc(OC[C@@]56CCCN5C[C@H](F)C6)nc4c3F)c12 [Compound 39, trifluoroacetic acid] , report IC50.
Return: 61.2

Enquiry: Please give measured IC50 of the following entry: C#Cc1c(F)ccc2cc(O)cc(-c3ncc4c(N5[C@H]6COC[C@@H](C)[C@@H]5C6)nc(OC[C@@]56CCCN5C[C@H](F)C6)nc4c3F)c12 [Compound 111]
Return: 390

Enquiry: Quote IC50 reported for C#Cc1c(F)ccc2cc(O)cc(-c3ncc4c(N5CCOC[C@@H](O)C5)nc(OC[C@@]56CCCN5C[C@H](F)C6)nc4c3F)c12 (single isomer, unassigned) [Compound 46B] please.
Return: 446

###

biological target: K-Ras G13D (Homo sapiens, UniProt P01116, G13D); assay: biochemical
Sequence (P01116 1-169 isoform P01116-2 G13D): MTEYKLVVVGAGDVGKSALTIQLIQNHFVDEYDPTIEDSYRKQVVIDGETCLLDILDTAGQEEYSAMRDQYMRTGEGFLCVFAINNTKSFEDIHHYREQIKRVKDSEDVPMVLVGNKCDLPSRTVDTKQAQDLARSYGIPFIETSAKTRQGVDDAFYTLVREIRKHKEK
pIC50: −log10 of the molar value.
experimental_endpoint: pIC50

Answered examples (2):
INSERT INTO measurements (molecule, measured_value) VALUES
  ('C#Cc1c(F)ccc2cc(O)cc(-c3ncc4c(N5CCCO[C@H](CC#N)C5)nc(OC[C@@]56CCCN5C[C@H](F)C6)nc4c3F)c12 (single isomer, unassigned)', '< 6.70'),
  ('C#Cc1c(F)ccc2cc(O)cc(-c3ncc4c(N5CCOC[C@H](OC)C5)nc(OC[C@@]56CCCN5C[C@H](F)C6)nc4c3F)c12 (single isomer, unassigned) [Compound 49B]', '< 7.00');

Now look at this entry.
Enquiry: Give measured pIC50 for C#Cc1c(F)ccc2cc(O)cc(-c3ncc4c(N5CCOCC(C)(F)C5)nc(OC[C@@]56CCCN5C[C@H](F)C6)nc4c3F)c12 (stereo partly drawn) (K-Ras G13D (Homo sapiens, UniProt P01116, G13D)).
Return: 8.66

###

target: K-Ras G12C (Homo sapiens, UniProt P01116, G12C); assay: SOS1 catalyzed nucleotide exchange assay (GDP form K-Ras), K-Ras G12C; details: read-out: K-Ras G12C GDP Biochemical Activity (IC50)
Sequence (P01116 1-169 isoform P01116-2 G12C): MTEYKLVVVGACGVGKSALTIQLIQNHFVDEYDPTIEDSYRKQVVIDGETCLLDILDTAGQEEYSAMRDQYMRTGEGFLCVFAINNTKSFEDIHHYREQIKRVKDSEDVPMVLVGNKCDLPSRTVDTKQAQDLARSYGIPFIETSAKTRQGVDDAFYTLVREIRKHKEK
Consider the following molecules and their measured pIC50 readings.
Scale explanation: pIC50 corresponds to minus log10 of a concentration expressed in moles per litre.

INSERT INTO assay_data (molecule, measured_value) VALUES
  ('C#Cc1c(F)ccc2cc(O)cc(-c3c(Cl)cc4c(N5CCCOCC5)nc(OC[C@@]56CCCN5C[C@H](F)C6)nc4c3F)c12 (atropisomer, axis not shown; (M)) [Compound 19B]', 8.43);

Consider the record given below.
Enquiry: Look up and report measured pIC50 for this entry: C#Cc1c(F)ccc2cc(O)cc(-c3ncc4c(N5CCCOC[C@H]5C)nc(OC[C@@]56CCCN5C[C@H](F)C6)nc4c3F)c12 (single isomer, unassigned) [Compound 16B]
Return: 8.95

###

biological target: K-Ras WT (Homo sapiens, UniProt P01116); assay: SOS1 catalyzed nucleotide exchange assay (GDP form K-Ras), K-Ras WT; details: read-out: K-Ras WT GDP Biochemical Activity (IC50)
Sequence (P01116 1-169 isoform P01116-2): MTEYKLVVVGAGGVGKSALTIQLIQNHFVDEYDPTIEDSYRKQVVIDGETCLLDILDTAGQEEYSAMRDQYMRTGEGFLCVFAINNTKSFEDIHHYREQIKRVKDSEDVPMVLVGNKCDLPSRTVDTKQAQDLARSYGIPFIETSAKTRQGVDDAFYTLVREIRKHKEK
Reported IC50 values are given for each entry in this list.
Use nM as the unit, but write only the number.

Examples from the recorded data:
INSERT INTO measurements (compound, tested_system, experimental_endpoint, measured_value) VALUES
  ('C#Cc1c(F)ccc2cc(O)cc(-c3ncc4c(N5CCOC[C@@H](C)C5)nc(OC[C@@]56CCCN5C[C@H](F)C6)nc4c3F)c12 (single isomer, unassigned) [Compound 13A]', 'K-Ras WT (Homo sapiens, UniProt P01116)', 'IC50', 5.99),
  ('C#Cc1c(F)ccc2cc(O)cc(-c3ncc4c(N5CC6COC(C6)C5)nc(OC[C@@]56CCCN5C[C@H](F)C6)nc4c3F)c12 (single isomer, unassigned) [Compound 84A]', 'K-Ras WT (Homo sapiens, UniProt P01116)', 'IC50', 11.4),
  ('C#Cc1c(F)ccc2cc(O)cc(-c3ncc4c(N5CCCOCC5)nc(OCC56CCCN5CC(C)(F)C6)nc4c3F)c12 (centres unmarked)', 'K-Ras WT (Homo sapiens, UniProt P01116)', 'IC50', 2.05),
  ('C#Cc1c(F)ccc2cc(O)cc(-c3ncc4c(N5CCOCC(C)(F)C5)nc(OC[C@@]56CCCN5C[C@H](F)C6)nc4c3F)c12 (some centres unmarked)', 'K-Ras WT (Homo sapiens, UniProt P01116)', 'IC50', 2.56);

Enquiry: Assign IC50 to the following record: C#Cc1c(F)ccc2cc(O)cc(-c3ncc4c(N5CCOC[C@@H](O)C5)nc(OC[C@@]56CCCN5C[C@H](F)C6)nc4c3F)c12 (single isomer, unassigned) [Compound 46B]
Return: 0.964

###

target: UniProtKB P01116; test: SOS1 catalyzed nucleotide exchange assay (GDP form K-Ras), K-Ras WT; conditions: read-out: K-Ras WT GDP Biochemical Activity (IC50)
Each entry below carries its recorded IC50.
Return type: number; implicit unit nM.

Solved entries:
INSERT INTO measurements (molecule, measured_value) VALUES
  ('C#Cc1c(F)ccc2cc(O)cc(-c3ncc4c(N5CCOC[C@H](CC#N)C5)nc(OC[C@@]56CCCN5C[C@H](F)C6)nc4c3F)c12 (single isomer, unassigned) [Compound 14B]', 0.882),
  ('C#Cc1c(F)ccc2cc(O)cc(-c3ncc4c(N5CCOCC(C#N)C5)nc(OC[C@@]56CCCN5C[C@H](F)C6)nc4c3F)c12 (some centres unmarked) [Compound 88]', 28.5),
  ('C#Cc1c(F)ccc2cc(O)cc(-c3ncc4c(N5CCOCC(N(C)C)C5)nc(OC[C@@]56CCCN5C[C@H](F)C6)nc4c3F)c12 (some centres unmarked) [Compound 26]', 4.72),
  ('C#Cc1c(F)ccc2cc(O)cc(-c3c(Cl)cc4c(N5CCCOCC5)nc(OC[C@@]56CCCN5C[C@H](F)C6)nc4c3F)c12 (atropisomer, axis not shown; (M)) [Compound 19B]', 8.72);

Now turn to the next molecule.
Enquiry: Report measured IC50 on UniProtKB P01116; entry: C#Cc1c(F)ccc2cc(O)cc(-c3ncc4c(N5CCCO[C@H](CC#N)C5)nc(OC[C@@]56CCCN5C[C@H](F)C6)nc4c3F)c12 (single isomer, unassigned)
Return: 60.2

###

The entries below come with measured IC50 values attached.
molecular target: K-Ras G13D (Homo sapiens, UniProt P01116, G13D)
Provide the reading as a plain figure in nM.

INSERT INTO measurements (compound, unit_descriptor, measured_value) VALUES
  ('C#Cc1c(F)ccc2cc(O)cc(-c3ncc4c(N5CCCOC[C@@H]5C)nc(OC[C@@]56CCCN5C[C@H](F)C6)nc4c3F)c12 (single isomer, unassigned) [Compound 16A]', 'nM', 14.2);

Enquiry: Give IC50 for this entry on K-Ras G13D (Homo sapiens, UniProt P01116, G13D): C#Cc1c(F)ccc2cc(O)cc(-c3ncc4c(N5CCOC[C@H](CC#N)C5)nc(OC[C@@]56CCCN5C[C@H](F)C6)nc4c3F)c12 (single isomer, unassigned) [Compound 14B]
Return: 2.76

Enquiry: Give IC50 only, for C#Cc1c(F)ccc2cc(O)cc(-c3c(Cl)cc4c(N5CCCOCC5)nc(OC[C@@]56CCCN5C[C@H](F)C6)nc4c3F)c12 (atropisomer, axis not shown; (M)) [Compound 19B] , using K-Ras G13D (Homo sapiens, UniProt P01116, G13D) data.
Return: 14.4

Enquiry: Send back K-Ras G13D (Homo sapiens, UniProt P01116, G13D) IC50 of C#Cc1c(F)ccc2cc(O)cc(-c3ncc4c(N5CCCOC[C@H]5C)nc(OC[C@@]56CCCN5C[C@H](F)C6)nc4c3F)c12 (single isomer, unassigned) [Compound 16B] only.
Return: 2.22

###

target: K-Ras G12A (Homo sapiens, UniProt P01116, G12A); test: SOS1 catalyzed nucleotide exchange assay (GDP form K-Ras), K-Ras G12A; details: read-out: K-Ras G12A GDP Biochemical Activity (IC50)
Sequence (P01116 1-169 isoform P01116-2 G12A): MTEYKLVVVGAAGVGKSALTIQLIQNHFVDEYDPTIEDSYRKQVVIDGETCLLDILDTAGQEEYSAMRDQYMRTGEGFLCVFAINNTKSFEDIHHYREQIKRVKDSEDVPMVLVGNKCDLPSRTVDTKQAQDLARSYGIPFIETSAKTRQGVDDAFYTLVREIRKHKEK
Form field: pIC50 (one value per entry).
Reminder that pIC50 is minus the log10 of a molar concentration.

INSERT INTO assay_data (compound, measured_value) VALUES
  ('C#Cc1c(F)ccc2cc(O)cc(-c3ncc4c(N5CCCOC[C@H]5C)nc(OC[C@@]56CCCN5C[C@H](F)C6)nc4c3F)c12 (single isomer, unassigned) [Compound 16B]', 8.79);

Could you now look at the following compound, please?
Enquiry: Param request: pIC50 | system K-Ras G12A (Homo sapiens, UniProt P01116, G12A) | item C#Cc1c(F)ccc2cc(O)cc(-c3c(Cl)cc4c(N5CCCOCC5)nc(OC[C@@]56CCCN5C[C@H](F)C6)nc4c3F)c12 (atropisomer, axis not shown; (M)) [Compound 19B]
Return: 7.80

Data credit: patent US20250019377A1
